Where do the numbers come from? From the supplement of paper PMC7877785.

METHOD SUMMARY: self-splicing fitness, log relative to wild type (ln ratio); higher = more splicing; Tetrahymena group I intron in knt gene, E. coli kanamycin selection, DiMSum; sequences stand for … in CUCUCU…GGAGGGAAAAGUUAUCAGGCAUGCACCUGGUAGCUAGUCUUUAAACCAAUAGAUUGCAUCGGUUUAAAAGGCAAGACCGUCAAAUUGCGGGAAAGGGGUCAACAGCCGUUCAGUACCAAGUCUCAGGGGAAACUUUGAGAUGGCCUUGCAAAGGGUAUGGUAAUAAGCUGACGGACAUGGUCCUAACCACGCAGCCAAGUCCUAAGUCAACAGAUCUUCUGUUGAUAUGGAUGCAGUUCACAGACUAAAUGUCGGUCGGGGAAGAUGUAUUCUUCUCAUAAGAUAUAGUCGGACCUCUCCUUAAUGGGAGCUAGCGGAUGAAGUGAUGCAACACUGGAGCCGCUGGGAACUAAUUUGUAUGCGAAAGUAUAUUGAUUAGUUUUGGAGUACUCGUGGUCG;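 also: selection with 25 µg/mL kanamycin versus none on LB agar overnight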
EXPERIMENTAL CONTEXT: 30 °C
READOUT LABEL: self-splicing fitness (ln)
Lab note: record just the number, no unit beside it.

Incoming: Return self-splicing fitness (ln) for the following sequence: CUAUAGCAAUAUUACGUUGG
Outgoing: -3.71

Incoming: Report measured self-splicing fitness (ln); entry is AAAAAGCAAUAUUACGUUCG
Outgoing: -0.479

Incoming: Give recorded self-splicing fitness (ln). CGAGAGCAAUAUUACGUGCU
Outgoing: -4.22

Incoming: Read the entry AAUCAGCAAUAUUACGUGGU and write its reported self-splicing fitness (ln).
Outgoing: -1.65

Incoming: Tell me self-splicing fitness (ln) reported for UGCUAGCAAUAUUACGUGUA
Outgoing: -1.74

Incoming: Quote self-splicing fitness (ln) reported for ACGCAGCAAUAUUACGUGUC please.
Outgoing: -3.37

Incoming: Look up self-splicing fitness (ln) of UCUGAGCAAUAUUACGCUUA and report it.
Outgoing: -2.24

Incoming: Respond only with self-splicing fitness (ln) recorded for CAGUAGCAAUAUUACGCUCA
Outgoing: -0.118

Incoming: Give me measured self-splicing fitness (ln), please, for this sequence: CUGUAGCAAUAUUACGCGUA
Outgoing: -3.3

Incoming: Item CCUCAGCAAUAUUACGUUGU : provide self-splicing fitness (ln)
Outgoing: -4.98

---

METHOD SUMMARY: self-splicing fitness, log relative to wild type (ln ratio); higher = more splicing; Tetrahymena group I intron in knt gene, E. coli kanamycin selection, DiMSum; sequences stand for … in CUCUCU…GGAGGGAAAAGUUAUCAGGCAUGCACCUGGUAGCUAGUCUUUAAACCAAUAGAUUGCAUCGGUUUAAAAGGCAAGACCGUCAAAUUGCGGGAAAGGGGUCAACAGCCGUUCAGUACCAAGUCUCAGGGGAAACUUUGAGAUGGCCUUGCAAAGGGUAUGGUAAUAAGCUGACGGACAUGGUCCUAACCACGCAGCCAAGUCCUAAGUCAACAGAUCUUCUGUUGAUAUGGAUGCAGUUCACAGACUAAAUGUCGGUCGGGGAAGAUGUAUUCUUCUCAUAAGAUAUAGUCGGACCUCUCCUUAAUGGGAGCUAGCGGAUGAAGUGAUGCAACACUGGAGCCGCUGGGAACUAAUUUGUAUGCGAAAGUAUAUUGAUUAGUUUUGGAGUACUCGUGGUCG
EXPERIMENTAL CONTEXT: 30 °C
READOUT LABEL: self-splicing fitness (ln)
Just the number, please, no unit after it.

Example results:
[[record]]
sequence_string = "ACCAAGCAAUAUUACGUGUG"
readout_label = "self-splicing fitness (ln)"
recorded_number = -2.06

[[record]]
sequence_string = "GAACAGCAAUAUUACGGACC"
readout_label = "self-splicing fitness (ln)"
recorded_number = -0.915

[[record]]
sequence_string = "CGGAAGCAAUAUUACGAUAC"
readout_label = "self-splicing fitness (ln)"
recorded_number = -2.26

[[record]]
sequence_string = "UGGUAGCAAUAUUACGGGUU"
readout_label = "self-splicing fitness (ln)"
recorded_number = -4.12


Incoming: Specify self-splicing fitness (ln) for ACUAAGCAAUAUUACGGACA and stop.
Outgoing: -0.625

Incoming: Give the measured self-splicing fitness (ln) for AACGAGCAAUAUUACGAUUG
Outgoing: -4.09

Incoming: Specify measured self-splicing fitness (ln) for CGCUAGCAAUAUUACGACGA .
Outgoing: -1.46

Incoming: State, in one line, measured self-splicing fitness (ln) of CAGCAGCAAUAUUACGGAAG
Outgoing: -0.307
